Each recorded value in this set is attributed to PubChem BioAssay AID602144.

- TEST_SYSTEM: Phospholipase D1 (Homo sapiens)
- ASSAY_EXPLANATION: cellular phospholipase D1 activity inhibition – Calu-1 cells, single concentration (AID 602144);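 also: tested at 200 nM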
- STATED_CONDITIONS: cellular PLD1 activity, hits give low values
MEASURED_ATTRIBUTE: remaining activity (%)

> print(dat)
                                    compound  measured.attribute  recorded.number
 1  O=C(c1cnc2ccccc2c1)N1CC(N2CCC(n3c(=O)[nH]c4cc(Br)ccc43)CC2)C1  remaining activity             81.6
 2  C[C@@H](CN1CCC2(CC1)C(=O)NCN2c1ccccc1)NC(=O)c1ccc(F)c(F)c1  remaining activity             34.3
 3  O=C(NCCN1CCC2(CC1)C(=O)NCN2c1cccc(F)c1)c1cc(C(F)(F)F)ccc1C(F)(F)F  remaining activity             86.3
 4  C[C@@H](CN1CCC2(CC1)C(=O)NCN2c1ccccc1)NC(=O)[C@@H]1C[C@H]1c1ccccc1  remaining activity             70.5
 5  CC(C)[C@@H](CN1CCC2(CC1)C(=O)NCN2c1ccccc1)NC(=O)c1cc2ccccc2[nH]1  remaining activity             1.51
 6  O=C(NCCN1CCC2(CC1)C(=O)NCN2c1ccc(Br)cc1)c1cnc2ccccc2c1  remaining activity             94.1
 7  O=C(c1ccc(F)c(F)c1)N(CCN1CCC2(CC1)C(=O)NCN2c1cccc(F)c1)C(=O)c1ccc(F)c(F)c1  remaining activity              101
 8  O=C(NCCN1CCC2(CC1)C(=O)NCN2c1ccc(F)c(F)c1)c1cc2cc(F)ccc2[nH]1  remaining activity             69.1
 9  O=C(NCCN1CCC2(CC1)C(=O)NCN2c1ccc(Cl)cc1)c1cnc2ccccc2c1  remaining activity             94.2
10  O=C(NCCCCCCN1CCC2(CC1)C(=O)NCN2c1ccccc1)c1ccc2ccccc2c1  remaining activity              131
11  O=C(NCCN1CCC2(CC1)C(=O)NCN2c1ccc(F)cc1)c1cnc2ccccc2c1  remaining activity             60.5
12  O=C(NCCN1CCC2(CC1)C(=O)NCN2c1ccccc1)c1cc2cccnc2s1  remaining activity             51.1
13  O=C(NCCN1CCC2(CC1)C(=O)NCN2c1ccccc1)c1cc(-c2ccccc2)no1  remaining activity             97.4
14  O=C(NCCN1CCC2(CC1)C(=O)NCN2c1cccc(Cl)c1)c1cc2cc(F)ccc2[nH]1  remaining activity               58
15  CC(C)[C@@H](CN1CCC2(CC1)C(=O)NCN2c1ccccc1)NC(=O)c1ccc(Cl)cc1  remaining activity               18
16  O=C(NCCN1CCC2(CC1)C(=O)NCN2c1cccc(F)c1)c1cccc(F)c1  remaining activity              100
17  O=C(NCCN1CCC2(CC1)C(=O)NCN2c1ccccc1)c1cccc(Cl)n1  remaining activity              132
18  O=C(NCCN1CCC2(CC1)C(=O)NCN2c1ccc(F)cc1)c1cc2ccccc2[nH]1  remaining activity             32.3
19  C[C@@H](CN1CCC2(CC1)C(=O)NCN2c1ccc(F)c(F)c1)NC(=O)c1cc2ccccc2[nH]1  remaining activity                0
20  CCCCOc1ccc(C(=O)NCCN2CCC3(CC2)C(=O)NCN3c2cccc(F)c2)cc1  remaining activity              110
21  NC1(CN2CCC3(CC2)C(=O)NCN3c2ccccc2)CCCC1 (tested in a mixture with another compound)  remaining activity             85.3
22  O=C(NCCN1CCC2(CC1)C(=O)NCN2c1ccccc1)c1cc2ccccc2s1  remaining activity             50.8
23  O=C(NCCN1CCC2(CC1)C(=O)NCN2c1cccc(F)c1)c1ccc(F)nc1  remaining activity              117
24  O=C(c1c(F)cccc1F)N(CCN1CCC2(CC1)C(=O)NCN2c1cccc(F)c1)C(=O)c1c(F)cccc1F  remaining activity             97.9

###

- TEST_SYSTEM: Phospholipase D1 (Homo sapiens) (UniProt Q13393)
- Sequence (Q13393 whole entry, looked up): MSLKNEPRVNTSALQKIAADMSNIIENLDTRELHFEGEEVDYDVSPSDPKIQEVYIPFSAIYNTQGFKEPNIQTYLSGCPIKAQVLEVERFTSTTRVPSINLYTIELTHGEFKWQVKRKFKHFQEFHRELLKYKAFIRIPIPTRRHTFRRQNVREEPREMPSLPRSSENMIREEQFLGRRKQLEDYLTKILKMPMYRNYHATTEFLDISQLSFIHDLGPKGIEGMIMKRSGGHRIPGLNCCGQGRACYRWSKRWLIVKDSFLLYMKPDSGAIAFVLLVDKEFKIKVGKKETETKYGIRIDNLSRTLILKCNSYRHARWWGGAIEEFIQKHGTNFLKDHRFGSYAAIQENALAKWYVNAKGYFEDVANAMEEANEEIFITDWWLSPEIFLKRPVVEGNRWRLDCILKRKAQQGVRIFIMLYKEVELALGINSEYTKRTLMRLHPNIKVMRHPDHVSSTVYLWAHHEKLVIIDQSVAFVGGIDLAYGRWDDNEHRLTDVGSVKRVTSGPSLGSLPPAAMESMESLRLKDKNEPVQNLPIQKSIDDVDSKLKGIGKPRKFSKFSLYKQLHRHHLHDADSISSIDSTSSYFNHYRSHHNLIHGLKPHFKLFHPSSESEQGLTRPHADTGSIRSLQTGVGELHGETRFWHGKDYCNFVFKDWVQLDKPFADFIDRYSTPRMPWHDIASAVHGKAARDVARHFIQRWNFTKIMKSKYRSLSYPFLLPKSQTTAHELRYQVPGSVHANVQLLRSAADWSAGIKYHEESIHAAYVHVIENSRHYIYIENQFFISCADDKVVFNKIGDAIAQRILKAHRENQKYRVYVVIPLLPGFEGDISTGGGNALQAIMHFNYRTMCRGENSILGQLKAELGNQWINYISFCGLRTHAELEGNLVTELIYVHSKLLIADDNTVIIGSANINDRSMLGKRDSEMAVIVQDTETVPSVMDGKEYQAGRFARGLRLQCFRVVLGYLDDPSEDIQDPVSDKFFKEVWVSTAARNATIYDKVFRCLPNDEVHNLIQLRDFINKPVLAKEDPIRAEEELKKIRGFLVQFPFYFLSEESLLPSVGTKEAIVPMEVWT
- Sequence (Q13393 whole entry, looked up): as above
- ASSAY_EXPLANATION: cellular phospholipase D1 activity inhibition – Calu-1 cells, single concentration (AID 602144);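 also: tested at 200 nM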
- STATED_CONDITIONS: cellular PLD1 activity, hits give low values
Assign labels as follows, please: True for remaining activity below 80%; False for remaining activity equal to or exceeding 80%.

> print(dat)
                             compound.string  group.label
 1  CCCCCC(=O)N(CCN1CCC2(CC1)C(=O)NCN2c1cccc(F)c1)C(=O)CCCCC        False
 2  O=C(Cc1cccs1)NCCN1CCC2(CC1)C(=O)NCN2c1cccc(F)c1        False
 3  CC(C)(C)C(=O)NCCN1CCC2(CC1)C(=O)NCN2c1cccc(F)c1         True
 4  Cc1cccc(C(=O)N[C@@H](C)CN2CCC3(CC2)C(=O)NCN3c2ccccc2)c1         True
 5  O=C(NCCCN1CCC2(CC1)C(=O)NCN2c1ccccc1)c1cnc2ccccc2c1        False
 6  O=C1c2ccccc2C(=O)N1CCCN1CCC2(CC1)C(=O)NCN2c1ccccc1        False
 7  O=C(NCCN1CCC2(CC1)C(=O)N(Cc1ccccc1)c1ccccc12)c1ccc2ccccc2c1        False
 8  Nc1cccc(Cl)c1C(=O)NCCN1CCC2(CC1)C(=O)NCN2c1ccccc1        False
 9  O=C(NCCN1CCC2(CC1)C(=O)NCN2c1cccc(F)c1)C(c1ccccc1)c1ccccc1        False
10  O=C(NCCN1CCC2(CC1)C(=O)NCN2c1ccc(Cl)cc1)c1cc2ccccc2[nH]1         True
